Target: Trypsin, from human pancreas (Homo sapiens)
Where a SMILES comes first, the peptide text is derived from it.
assayReadout: pIC50
Would you please state pIC50, meaning minus log10 of the concentration in mol/L, as a bare number?

# compound CC(C)C[C@@H]1NC(=O)[C@H](CO)NC(=O)[C@H](CCCCN)NC(=O)[C@H]([C@@H](C)O)NC(=O)[C@@H]2CSSC[C@H](NC(=O)[C@H](CCCCN)NC(=O)[C@@H]3CCCN3C(=O)[C@@H]3CCCN3C1=O)C(=O)N[C@@H](Cc1ccc(O)cc1)C(=O)N1CCC[C@@H]1C(=O)N1CCC[C@H]1C(=O)N[C@@H](CCCNC(=N)N)C(=O)N2 [Ex. 196] (HELM PEPTIDE1{R.C.T.K.S.L.P.P.K.C.Y.[dP].P}$PEPTIDE1,PEPTIDE1,2:R3-10:R3|PEPTIDE1,PEPTIDE1,1:R1-13:R2$$$V2.0) ; its pIC50 = 7.15

* * *

Biological target: Chymase, from human skin (Homo sapiens)
Sequence (P23946 22-247): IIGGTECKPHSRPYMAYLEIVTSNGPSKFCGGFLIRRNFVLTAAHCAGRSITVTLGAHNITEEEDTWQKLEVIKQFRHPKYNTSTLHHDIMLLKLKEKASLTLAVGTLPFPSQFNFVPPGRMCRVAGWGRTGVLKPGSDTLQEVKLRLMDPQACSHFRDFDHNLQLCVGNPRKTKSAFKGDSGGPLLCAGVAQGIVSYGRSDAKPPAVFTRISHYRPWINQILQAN
Experiment: Enzymatic assay, chymase
Where a SMILES comes first, the peptide text is derived from it.
assayReadout: Chymase at 100 μM % (%)
Just the number please, in %, no unit attached.

// solved cases for Chymase at 100 μM % follow
CCCC[C@@H]1NC(=O)[C@@H]2CCCN2C(=O)[C@H]2CCCN2C(=O)[C@H](Cc2ccccc2Cl)NC(=O)[C@@H]2CSSC[C@H](NC1=O)C(=O)N[C@@H]([C@@H](C)O)C(=O)N[C@@H](C)C(=O)N[C@@H](CO)C(=O)N[C@@H]([C@@H](C)CC)C(=O)N1CCC[C@H]1C(=O)N1CCC[C@H]1C(=O)N[C@@H](CCC(N)=O)C(=O)N2 [Ex. 96] (HELM PEPTIDE1{[Nle].C.T.A.S.I.P.P.Q.C.[O=C([C@H](Cc1ccccc1Cl)N[*:1])[*:2]].[dP].P}$PEPTIDE1,PEPTIDE1,2:R3-10:R3|PEPTIDE1,PEPTIDE1,1:R1-13:R2$$$V2.0)	0
CCCC[C@@H]1NC(=O)[C@H](C(C)C)NC(=O)[C@H]2CCCN2C(=O)[C@H](Cc2ccc(O)cc2)NC(=O)[C@@H]2CSSC[C@H](NC1=O)C(=O)N[C@@H]([C@@H](C)O)C(=O)N[C@@H](C)C(=O)N[C@@H](CO)C(=O)N[C@@H]([C@@H](C)CC)C(=O)N1CCC[C@H]1C(=O)N1CCC[C@H]1C(=O)N[C@@H](CCC(N)=O)C(=O)N2 [Ex. 125] (HELM PEPTIDE1{[Nle].C.T.A.S.I.P.P.Q.C.Y.[dP].V}$PEPTIDE1,PEPTIDE1,2:R3-10:R3|PEPTIDE1,PEPTIDE1,1:R1-13:R2$$$V2.0)	4.8
CC[C@H](C)[C@@H]1NC(=O)[C@@H]2CCCN2C(=O)[C@@H]2CCCN2C(=O)[C@H](CC(=O)O)NC(=O)[C@H](CO)NC(=O)[C@H](CCCCN)NC(=O)[C@H]([C@@H](C)O)NC(=O)[C@@H]2CSSC[C@H](NC1=O)C(=O)N[C@@H](CC(=O)O)C(=O)N1CCC[C@@H]1C(=O)N1CCC[C@H]1C(=O)N[C@@H](C1CCCCC1)C(=O)N2 [Ex. 39] (HELM PEPTIDE1{[O=C([C@@H](N[*:1])C1CCCCC1)[*:2]].C.T.K.S.D.P.P.I.C.D.[dP].P}$PEPTIDE1,PEPTIDE1,2:R3-10:R3|PEPTIDE1,PEPTIDE1,1:R1-13:R2$$$V2.0)	0
C[C@@H]1NC(=O)[C@H]([C@@H](C)O)NC(=O)[C@@H]2CSSC[C@H](NC(=O)[C@H](CCC(N)=O)NC(=O)[C@@H]3CCCN3C(=O)[C@@H]3CCCN3C(=O)[C@H](CC3CCCCC3)NC(=O)[C@H](CO)NC1=O)C(=O)N[C@@H](CCC(N)=O)C(=O)N1CCC[C@@H]1C(=O)N1CCC[C@H]1C(=O)N[C@@H](CCc1ccccc1)C(=O)N2 [Ex. 158] (HELM PEPTIDE1{[O=C([C@H](CCc1ccccc1)N[*:1])[*:2]].C.T.A.S.[Cha].P.P.Q.C.Q.[dP].P}$PEPTIDE1,PEPTIDE1,2:R3-10:R3|PEPTIDE1,PEPTIDE1,1:R1-13:R2$$$V2.0)	0

--- query ---
# compound CC[C@H](C)[C@@H]1NC(=O)[C@@H]2CCCN2C(=O)[C@@H]2CCCN2C(=O)[C@H](CC(=O)O)NC(=O)[C@H](CN)NC(=O)[C@H](CCCCN)NC(=O)[C@H]([C@@H](C)O)NC(=O)[C@@H]2CSSC[C@H](NC1=O)C(=O)N[C@@H](CO)C(=O)N1CCC[C@@H]1C(=O)N1CCC[C@H]1C(=O)N[C@@H](Cc1ccccc1)C(=O)N2 [Ex. 25] (HELM PEPTIDE1{F.C.T.K.[NC[C@H](N[*:1])C(=O)[*:2]].D.P.P.I.C.S.[dP].P}$PEPTIDE1,PEPTIDE1,2:R3-10:R3|PEPTIDE1,PEPTIDE1,1:R1-13:R2$$$V2.0) ; its Chymase at 100 μM % = 10.0

* * *

Molecular target: CathepsinG, from human neutrophils (Homo sapiens)
Sequence (P08311 21-244): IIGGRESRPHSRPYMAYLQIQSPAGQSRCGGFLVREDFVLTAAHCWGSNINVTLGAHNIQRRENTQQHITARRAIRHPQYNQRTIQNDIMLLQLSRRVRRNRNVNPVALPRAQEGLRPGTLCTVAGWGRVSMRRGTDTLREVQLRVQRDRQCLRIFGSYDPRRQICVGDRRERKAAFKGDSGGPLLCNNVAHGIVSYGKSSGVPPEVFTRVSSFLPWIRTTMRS
Experiment: Enzymatic assay, cathepsin G
Conditions: Cathepsin G IC50
Where a SMILES comes first, the peptide text is derived from it.
assayReadout: pIC50
Would you please state pIC50, meaning minus log10 of the concentration in mol/L, as a bare number?

# molecule CC[C@H](C)[C@@H]1NC(=O)[C@@H]2CCCN2C(=O)[C@@H]2CCCN2C(=O)[C@H](CC(=O)O)NC(=O)[C@H](CO)NC(=O)[C@H](CCCCN)NC(=O)[C@H]([C@@H](C)O)NC(=O)[C@@H]2CSSC[C@H](NC1=O)C(=O)N[C@@H](Cc1ccc(O)cc1)C(=O)N1CCC[C@@H]1C(=O)N1CCC[C@H]1C(=O)N[C@@H](Cc1ccccc1)C(=O)N2 [Ex. 5] (HELM PEPTIDE1{F.C.T.K.S.D.P.P.I.C.Y.[dP].P}$PEPTIDE1,PEPTIDE1,2:R3-10:R3|PEPTIDE1,PEPTIDE1,1:R1-13:R2$$$V2.0) ; its pIC50 = 7.25

# molecule CC[C@H](C)[C@@H]1NC(=O)[C@@H]2CCCN2C(=O)[C@@H]2CCCN2C(=O)[C@H](CC(=O)O)NC(=O)[C@H](CO)NC(=O)[C@H](CCCCN)NC(=O)[C@H]([C@@H](C)O)NC(=O)[C@@H]2CSSC[C@H](NC1=O)C(=O)N[C@@H](CC(=O)O)C(=O)N1CCC[C@@H]1C(=O)N1CCC[C@H]1C(=O)N[C@@H](CC1CCCCC1)C(=O)N2 [Ex. 35] (HELM PEPTIDE1{[Cha].C.T.K.S.D.P.P.I.C.D.[dP].P}$PEPTIDE1,PEPTIDE1,2:R3-10:R3|PEPTIDE1,PEPTIDE1,1:R1-13:R2$$$V2.0) ; its pIC50 = 7.27

# molecule CC[C@H](C)[C@@H]1NC(=O)[C@@H]2CCCN2C(=O)[C@@H]2CCCN2C(=O)[C@H](CC(=O)O)NC(=O)[C@H](CO)NC(=O)[C@H](CCCCN)NC(=O)[C@H]([C@@H](C)O)NC(=O)[C@@H]2CSSC[C@H](NC1=O)C(=O)N[C@@H](Cc1ccc(O)cc1)C(=O)N1CCC[C@@H]1C(=O)N1CCC[C@H]1C(=O)N[C@@H](Cc1ccc(O)cc1)C(=O)N2 [Ex. 26] (HELM PEPTIDE1{Y.C.T.K.S.D.P.P.I.C.Y.[dP].P}$PEPTIDE1,PEPTIDE1,2:R3-10:R3|PEPTIDE1,PEPTIDE1,1:R1-13:R2$$$V2.0) ; its pIC50 = 7.31

# molecule CC[C@H](C)[C@@H]1NC(=O)[C@@H]2CCCN2C(=O)[C@@H]2CCCN2C(=O)[C@H](CC(=O)O)NC(=O)[C@H](CO)NC(=O)[C@H](CCCCN)NC(=O)[C@H]([C@@H](C)O)NC(=O)[C@@H]2CSSC[C@H](NC1=O)C(=O)N[C@@H](CC(N)=O)C(=O)N1CCC[C@@H]1C(=O)N1CCC[C@H]1C(=O)N[C@@H](Cc1ccc(N)cc1)C(=O)N2 [Ex. 31] (HELM PEPTIDE1{[Nc1ccc(C[C@H](N[*:1])C(=O)[*:2])cc1].C.T.K.S.D.P.P.I.C.N.[dP].P}$PEPTIDE1,PEPTIDE1,2:R3-10:R3|PEPTIDE1,PEPTIDE1,1:R1-13:R2$$$V2.0) ; its pIC50 = 7.47

* * *

# maps each entry to its Urokinase at 100 μM %
Target: Urokinase from human urine (Homo sapiens)
Assay: Enzymatic assay, urokinase
Where a SMILES comes first, the peptide text is derived from it.
Just the number please, in %, no unit attached.

// solved cases for Urokinase at 100 μM % follow
CC[C@H](C)[C@@H]1NC(=O)[C@@H]2CCCN2C(=O)[C@@H]2CCCN2C(=O)[C@H](CC(=O)O)NC(=O)[C@H](CO)NC(=O)[C@H](CCCCN)NC(=O)[C@H]([C@@H](C)O)NC(=O)[C@@H]2CSSC[C@H](NC1=O)C(=O)N[C@@H](CC(=O)O)C(=O)N1CCC[C@@H]1C(=O)N1CCC[C@H]1C(=O)N[C@@H](Cc1ccccc1)C(=O)N2 [Ex. 2] (HELM PEPTIDE1{F.C.T.K.S.D.P.P.I.C.D.[dP].P}$PEPTIDE1,PEPTIDE1,2:R3-10:R3|PEPTIDE1,PEPTIDE1,1:R1-13:R2$$$V2.0)	0.9
CCCC[C@@H]1NC(=O)[C@@H]2CCCN2C(=O)[C@@H]2CCCN2C(=O)[C@H](CC(=O)O)NC(=O)[C@H](CO)NC(=O)[C@H](CCCCN)NC(=O)[C@H]([C@@H](C)O)NC(=O)[C@@H]2CSSC[C@H](NC1=O)C(=O)N[C@@H](Cc1ccc(O)cc1)C(=O)N1CCC[C@@H]1C(=O)N1CCC[C@H]1C(=O)N[C@@H](C1CCCCC1)C(=O)N2 [Ex. 63] (HELM PEPTIDE1{[O=C([C@@H](N[*:1])C1CCCCC1)[*:2]].C.T.K.S.D.P.P.[Nle].C.Y.[dP].P}$PEPTIDE1,PEPTIDE1,2:R3-10:R3|PEPTIDE1,PEPTIDE1,1:R1-13:R2$$$V2.0)	0
CCCC[C@@H]1NC(=O)[C@@H]2CCCN2C(=O)[C@@H]2CCCN2C(=O)[C@H](CC(=O)O)NC(=O)[C@H](CO)NC(=O)[C@H](CCCCN)NC(=O)[C@H]([C@@H](C)O)NC(=O)[C@@H]2CSSC[C@H](NC1=O)C(=O)N[C@@H](CCCNC(=N)N)C(=O)N1CCC[C@@H]1C(=O)N1CCC[C@H]1C(=O)N[C@@H]([C@@H](C)CC)C(=O)N2 [Ex. 57] (HELM PEPTIDE1{I.C.T.K.S.D.P.P.[Nle].C.R.[dP].P}$PEPTIDE1,PEPTIDE1,2:R3-10:R3|PEPTIDE1,PEPTIDE1,1:R1-13:R2$$$V2.0)	4

# compound CCCC[C@@H]1NC(=O)[C@@H]2CCCN2C(=O)[C@H]2CCCN2C(=O)[C@H](Cc2ccccc2Cl)NC(=O)[C@@H]2CSSC[C@H](NC1=O)C(=O)N[C@@H]([C@@H](C)O)C(=O)N[C@@H](C)C(=O)N[C@@H](CO)C(=O)N[C@@H]([C@@H](C)CC)C(=O)N1CCC[C@H]1C(=O)N1CCC[C@H]1C(=O)N[C@@H](CCC(N)=O)C(=O)N2 [Ex. 96] (HELM PEPTIDE1{[Nle].C.T.A.S.I.P.P.Q.C.[O=C([C@H](Cc1ccccc1Cl)N[*:1])[*:2]].[dP].P}$PEPTIDE1,PEPTIDE1,2:R3-10:R3|PEPTIDE1,PEPTIDE1,1:R1-13:R2$$$V2.0) ; its Urokinase at 100 μM % = 6.2
